System: Staphylococcus aureus
Assay: Antibacterial activity against inducible macrolide-lincosamide-streptogramin B-resistant Staphylococcus aureus B0538 by agar microdilution method
Assay type: functional
readoutKind: MIC

Some entries whose results are on file:
{"columns": ["molecule", "experimentalTarget", "MIC"],
 "data": [
  ["CC[C@H]1OC(=O)[C@H](C)C(=O)[C@H](C)[C@@H](O[C@@H]2O[C@H](C)C[C@H](N(C)C)[C@H]2O)[C@](C)(OCC(O)CNCCCCc2ccccn2)C[C@@H](C)NC(=O)[C@H](C)[C@@H](O)[C@]1(C)O (stereo partly drawn)", "Staphylococcus aureus", "4 µg/mL"],
  ["CC[C@H]1OC(=O)[C@H](C)C(=O)[C@H](C)[C@@H](O[C@@H]2O[C@H](C)C[C@H](N(C)C)[C@H]2O)[C@](C)(OCC(O)CNCCCCc2cccnc2)C[C@@H](C)NC(=O)[C@H](C)[C@@H](O)[C@]1(C)O (stereo partly drawn)", "Staphylococcus aureus", "1 µg/mL"]
]}

Consider the record given below.
## Task Param item = CC[C@H]1OC(=O)[C@H](C)C(=O)[C@H](C)[C@@H](O[C@@H]2O[C@H](C)C[C@H](N(C)C)[C@H]2O)[C@](C)(OCC(O)CN[C@H](C)Cc2ccc(OC)cc2)C[C@@H](C)NC(=O)[C@H](C)[C@@H](O)[C@]1(C)O (mixture of isomers) ; retrieve measured MIC.
## Result 2 µg/mL

###

System: Streptococcus pyogenes
Assay: Antibacterial activity against inducible macrolide-lincosamide-streptogramin B-resistant Streptococcus pyogenes B0543 by agar microdilution method
Assay type: functional
readoutKind: MIC (µg/mL)
One number for each entry, in µg/mL.

Some entries whose results are on file:
{"columns": ["compound", "MIC [µg/mL]"],
 "data": [
  ["CC[C@H]1OC(=O)[C@H](C)C(=O)[C@H](C)[C@@H](O[C@@H]2O[C@H](C)C[C@H](N(C)C)[C@H]2O)[C@](C)(OCC(O)CNCc2cnc3ccccc3c2)C[C@@H](C)NC(=O)[C@H](C)[C@@H](O)[C@]1(C)O (mixture of isomers)", 4],
  ["CC[C@H]1OC(=O)[C@H](C)C(=O)[C@H](C)[C@@H](O[C@@H]2O[C@H](C)C[C@H](N(C)C)[C@H]2O)[C@](C)(OCC(O)CNCCc2cccnc2)C[C@@H](C)NC(=O)[C@H](C)[C@@H](O)[C@]1(C)O (some centres undefined)", 4],
  ["CC[C@H]1OC(=O)[C@H](C)C(=O)[C@H](C)[C@@H](O[C@@H]2O[C@H](C)C[C@H](N(C)C)[C@H]2O)[C@](C)(OCC(O)CNCCCCc2ccccn2)C[C@@H](C)NC(=O)[C@H](C)[C@@H](O)[C@]1(C)O (some centres undefined)", 0.5]
]}

## Task Param item = CC[C@H]1OC(=O)[C@H](C)C(=O)[C@H](C)[C@@H](O[C@@H]2O[C@H](C)C[C@H](N(C)C)[C@H]2O)[C@](C)(OCC(O)CN2CCN(c3ccc(C(C)=O)cc3)CC2)C[C@@H](C)NC(=O)[C@H](C)[C@@H](O)[C@]1(C)O (mixture of isomers) ; retrieve measured MIC.
## Result 8

###

Please respond with reported MIC for every item in the list.
Tested on: Staphylococcus aureus
Assay: Antibacterial activity against erythromycin A-susceptible Staphylococcus aureus B0329 by agar microdilution method
Give bare numbers, in µg/mL.

{"columns": ["compound", "unitAnnotation", "MIC"],
 "data": [
  ["CC[C@H]1OC(=O)[C@H](C)C(=O)[C@H](C)[C@@H](O[C@@H]2O[C@H](C)C[C@H](N(C)C)[C@H]2O)[C@](C)(OCC(O)CNCCCCc2ccccc2)C[C@@H](C)NC(=O)[C@H](C)[C@@H](O)[C@]1(C)O (mixture of isomers)", "µg/mL", 2],
  ["CCOc1ccccc1N1CCN(CC(O)CO[C@]2(C)C[C@@H](C)NC(=O)[C@H](C)[C@@H](O)[C@](C)(O)[C@@H](CC)OC(=O)[C@H](C)C(=O)[C@H](C)[C@H]2O[C@@H]2O[C@H](C)C[C@H](N(C)C)[C@H]2O)CC1 (mixture of isomers)", "µg/mL", 2]
]}

Consider the record given below.
## Task Please provide the recorded MIC for CC[C@H]1OC(=O)[C@H](C)C(=O)[C@H](C)[C@@H](O[C@@H]2O[C@H](C)C[C@H](N(C)C)[C@H]2O)[C@](C)(OCC(O)CNc2ccc3ncccc3c2)C[C@@H](C)NC(=O)[C@H](C)[C@@H](O)[C@]1(C)O (some centres undefined) , tested on Staphylococcus aureus.
## Result 1
